test system: SF-268; assay: Growth inhibition of human SF268 cells after 48 hrs by SRB assay; assay type: functional; details: SF-268, 48 h
Catalogue of GI50 readings, one per entry.

chemical smiles	quantity unit	GI50
COc1cc(C(=O)/C=C/c2c(-c3cccs3)nc3ccccn23)cc(OC)c1OC	nM	2370
COc1ccc(-c2nc3ncccn3c2/C=C/C(=O)c2cc(OC)c(OC)c(OC)c2)cc1	nM	2360
COc1cc(C(=O)/C=C/c2c(-c3ccc(F)cc3)nc3ncccn23)cc(OC)c1OC	nM	1900
COc1cc(C(=O)/C=C/c2c(C(F)(F)F)nc3ccccn23)cc(OC)c1OC	nM	1640
COc1ccc(-c2nc3ccccn3c2/C=C/C(=O)c2cc(OC)c(OC)c(OC)c2)cc1OC	nM	3580
COc1ccc(C(=O)/C=C/c2c(C(F)(F)F)nc3ccccn23)cc1OC	nM	1570
COc1ccc(-c2nc3ccccn3c2/C=C/C(=O)c2cc(OC)c(OC)c(OC)c2)cc1	nM	4000

----------
tested on: HL-60(TB); assay: Growth inhibition of human HL-60(TB) cells after 48 hrs by SRB assay; format: functional; conditions: HL-60, 48 h
quantity name: GI50 (nM)

chemical smiles	quantity name	measured number
COc1ccc(-c2nc3ccccn3c2/C=C/C(=O)c2cc(OC)c(OC)c(OC)c2)cc1	GI50	34000
COc1ccc(C(=O)/C=C/c2c(C(F)(F)F)nc3ccccn23)cc1OC	GI50	1520
COc1cc(C(=O)/C=C/c2c(-c3cccs3)nc3ccccn23)cc(OC)c1OC	GI50	2010
COc1ccc(-c2nc3ncccn3c2/C=C/C(=O)c2cc(OC)c(OC)c(OC)c2)cc1	GI50	2520
COc1cc(C(=O)/C=C/c2c(C(F)(F)F)nc3ccccn23)cc(OC)c1OC	GI50	4120
COc1ccc(-c2nc3ccccn3c2/C=C/C(=O)c2cc(OC)c(OC)c(OC)c2)cc1OC	GI50	2530

----------
Catalogue of GI50 readings, one per entry.
test system: MCF7; test: Growth inhibition of human MCF7 cells after 48 hrs by SRB assay; format: functional; conditions: MCF7, 48 h

chemical smiles	test system	GI50 [nM]
COc1ccc(C(=O)/C=C/c2c(C(F)(F)F)nc3ccccn23)cc1OC	MCF7	560
COc1cc(C(=O)/C=C/c2c(C(F)(F)F)nc3ccccn23)cc(OC)c1OC	MCF7	1440
COc1cc(C(=O)/C=C/c2c(-c3ccc(F)cc3)nc3ncccn23)cc(OC)c1OC	MCF7	1610
COc1ccc(-c2nc3ccccn3c2/C=C/C(=O)c2cc(OC)c(OC)c(OC)c2)cc1	MCF7	2380
COc1cc(C(=O)/C=C/c2c(-c3cccs3)nc3ccccn23)cc(OC)c1OC	MCF7	1120

----------
assay: Growth inhibition of human SF539 cells after 48 hrs by SRB assay; type: functional; conditions: SF-539, 48 h
Catalogue of GI50 readings, one per entry.

chemical smiles	GI50 / µM
COc1ccc(-c2nc3ccccn3c2/C=C/C(=O)c2cc(OC)c(OC)c(OC)c2)cc1OC	2.71
COc1cc(C(=O)/C=C/c2c(-c3ccc(F)cc3)nc3ncccn23)cc(OC)c1OC	1.55
COc1ccc(-c2nc3ccccn3c2/C=C/C(=O)c2cc(OC)c(OC)c(OC)c2)cc1	2.39

----------
test system: MDA-MB-468; assay: Growth inhibition of human MDA-MB-468 cells after 48 hrs by SRB assay; format: functional; details: MDA-MB-468, 48 h

chemical smiles	GI50 [nM]
COc1ccc(-c2nc3ccccn3c2/C=C/C(=O)c2cc(OC)c(OC)c(OC)c2)cc1	11900
COc1ccc(-c2nc3ncccn3c2/C=C/C(=O)c2cc(OC)c(OC)c(OC)c2)cc1	1810
COc1cc(C(=O)/C=C/c2c(-c3ccc(F)cc3)nc3ncccn23)cc(OC)c1OC	2750
COc1cc(C(=O)/C=C/c2c(-c3cccs3)nc3ccccn23)cc(OC)c1OC	1720

# credit: ChEMBL document CHEMBL3217491
